# assayed.system: T1, his-tagged human IL-4R recombinant protein (h-IL-4R-his) (human, UniProt P24394 26-232)
# T1 construct: range 26-232; Made by Acrobiosystems in HEK293; also called Human IL-4R-his; not shown: his tag
# assay.text: Biacore SPR: antibody captured, IL-4R antigen in flow, 1:1 model
quantity.name: Kd (nM)

>  <binder>
humanized antibody hu25G7 (antibody, human IgG4 S228P, kappa, V domains shown, Uses the VH-c heavy chain and the VL-a light chain; also called wild-type hu25G7) VH: EVQLVESGGGLVQPGGSLRLSCAASGFTFSDYGMHWVRQAPGKGLEWVAFISSGSSIIYYADIVKGRSTISRDNAKNSLYLQMNSLRAEDTAVYYCTRGNKRGFFDYWGQGTLVTVSS VL: EIVLTQSPATLSLSPGERATLSCNASSSVSYMYWYQQKPGQAPRLLIYLTSNLASGIPARFSGSGSGTDFTLTISSLEPEDFAVYYCQQWRSNPPMLTFGGGTKVEIKR

>  <reported>
1.07

$$$$
>  <binder>
human-murine chimeric antibody 7B10-C (antibody, V domains shown, Expressed in HEK293 cells) VH: QVQLQQPGTELLKPGASVSLSCKASGYTFTSYWMHWVKQRPGQGLEWIGLIHPNSDTTKFSENFKTRATLTIDKSSSTAYMKLSSLTSEDSAVYYCAKSKIITTIVARHWYFDVWGTGTTVTVSS VL: DIVLTQSPPSLAVSLGQRATISCKASQSVDYGGDSYMNWYQQKLGQPPKVLIYAASNLESGIPARFSGSGSGTDFTLNIHPVEEEDVATYYCQHSNENPPTFGGGTKLEIK

>  <reported>
0.278

$$$$
>  <binder>
humanized antibody hu7B10 (antibody, human IgG1, kappa, V domains shown, Uses the VH-b heavy chain and the VL-b light chain) VH: EVQLVQSGAEVKKPGASVKVSCKASGYTFTSYWMHWVRQAPGQGLEWMGLIHPNSDTTKFSENFKTRVTMTIDTSISTAYMELSRLRSDDTAVYYCAKSKIITTIVARHWYFDVWGQGTTVTVSS VL: DIVLTQTPLSLSVTPGQPASISCKASQSVDYGGDSYMNWYLQKPGQPPQLLIYAASNLESGVPDRFSGSGSGTDFTLKISRVEAEDVGVYYCQHSNENPPTFGGGTKVEIKR

>  <reported>
0.284

$$$$
>  <binder>
human-murine chimeric antibody 25G7-C (antibody, V domains shown, Expressed in HEK293 cells) VH: EVQLVESGGGLVKPGGSLKLSCAASGFTFSDYGMHWVRQAPEKGLEWVAFISSGSSIIYYADIVKGRSTISRDNAKNTLFLQMTSLRSEDTAMYYCTRGNKRGFFDYWGQGTILTVSS VL: QIVLTQSPALMSASPGEKVTMTCNASSSVSYMYWYQRKPRSSPKPWIYLTSNLASGVPVRFSGSGSGTSYSLTISSMEAEDAATYYCQQWRSNPPMLTFGSGTKLEVK

>  <reported>
0.725

$$$$
